Reported values of RP-LC retention time for individual entries
# Test Description: gradient 5% acetonitrile 3 min, to 50% in 2 min, to 85% in 15 min, held 3 min, 100 µL/min
# Assay Setup: column: Zorbax Extend-C18 2.1 x 50 mm; eluents: water / acetonitrile, 0.1% formic acid

Compound: NC(=O)CSc1nnc(CCc2nc3ccccc3s2)o1
RP-LC retention time: 633 s

Compound: CCN1C(=O)c2ccccc2Oc2ccc(C(=O)NCCc3ccc(OC)c(OC)c3)cc21
RP-LC retention time: 864 s

Compound: O=C(NCc1ccccc1)N1CCC(Nc2cccnc2)C1 (configuration not stated)
RP-LC retention time: 580 s

Compound: CCN1C(=O)c2cccnc2Sc2cc(C(=O)NC3CCCCC3)ccc21
RP-LC retention time: 826 s

Compound: Cc1ccc(C)c(S(=O)(=O)N2CCC3(CC2)NCCN=C3NCc2ccccc2F)c1
RP-LC retention time: 757 s

Compound: CN(C)C(=O)c1cc(=O)[nH]c2ccc(F)cc12
RP-LC retention time: 577 s

Compound: COc1ccc(-c2noc(C3(NC(=O)c4ccco4)CCCCC3)n2)cc1
RP-LC retention time: 1000 s

Data credit: the METLIN SMRT retention time set (Domingo-Almenara et al. 2019)
